Each entry below carries its recorded cell viability.
# Tested on: Caco-2
# assay comment: cell viability relative to DMSO; higher = less toxic
# assay context: 72 h; 1 nM
Answer format: numeric, % implied, no suffix.

# compound, measured attribute, value
rows = [
    ("CO/N=C1\\C[C@]2(C[C@@H]3C[C@@H](C/C=C(\\C)C[C@@H](C)/C=C/C=C4\\CO[C@@H]5[C@H](O)C(C)=C[C@@H](C(=O)O3)[C@]45O)O2)O[C@H](/C(C)=C/C(C)C)[C@H]1C [moxidectin]", "cell viability", 95.3),
]

Record request: cell viability value, item COC(=O)N[C@@H](C)CNc1nccc(-c2cn(C(C)C)nc2-c2cc(Cl)cc(NS(C)(=O)=O)c2F)n1 [Encorafenib (LGX818)]
103

Query: cell viability; subject: CC(C)c1cc(C(C)C)c(CC(=O)NS(=O)(=O)Oc2c(C(C)C)cccc2C(C)C)c(C(C)C)c1 [avasimibe]
90.3

Values were extracted from the supplement of paper PMC13380429.
